test: Viability qHTS for spleen associated tyrosine kinase inhibitor (SYKi) naive MV4-11 cells (AID 1963823); details: MV4-11 AML viability, CellTiter-Glo luminescence, 72 h; series mostly up to 45 µM; also: nearly all actives have a fitted effect of over 40% in size
Results filed as inconclusive are left out. The source made the active and inactive calls. Calls follow the shape of the dose curve; as a rule, active = well fitted cell-killing curve with a large enough effect; inconclusive = small, poorly fitted or top-dose-only effect, or effect the other way; inactive = no such curve, though single readings can be large or run the other way.
Just give me one of these, please: yes (1) = active, no (0) = inactive

Examples from the recorded data:
MOLECULE	ASSIGNED_LABEL
CC(=O)N[C@@H](CC(C)C)C(=O)O	no (0)
O=c1cc(O)c(Cl)c[nH]1	no (0)
CNC(=S)NS(=O)(=O)c1cc(CCNC(=O)c2cc(Cl)ccc2OC)ccc1OC	no (0)
C=CC(=O)N1CCC(Oc2cc3c(Nc4ccc(Cl)c(Cl)c4F)ncnc3cc2OC)CC1	yes (1)
Cc1sc2c(c1C)C(c1ccc(Cl)cc1)=N[C@@H](CC(=O)Nc1ccc(OCCOCCOCCOCCNc3cccc4c3C(=O)N(C3CCC(=O)NC3=O)C4=O)cc1)c1nnc(C)n1-2 (some centres undefined)	no (0)
O=C(O)CCC(=O)c1ccc(-c2ccccc2)cc1	no (0)

// query What classification did "COCCOc1nc(-c2ccc(Cl)c(Cl)c2)n(-c2ccc(NC(=O)CCl)cc2)n1" end up with in this test?
// result yes (1)
